The measurements presented in this section are drawn from the RNAGym collection of RNA variant scans (doi:10.7554/elife.90254).

Entries and their self-cleavage values follow.
B1: LINE1-mini (parent)
chain: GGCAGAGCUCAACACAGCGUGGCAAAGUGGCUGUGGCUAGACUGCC

variants of: B1; experiment: self-cleavage, relative activity (ratio to wild type); higher = more cleavage; in vitro, sequencing; the parent is a self-cleaving ribozyme
Respond with the number and no other words.

Sample records with self-cleavage:
1) C10G A24C | 0.06
2) U43C C46G | 0.12

Here is another variant to look at.
Lab note: A4U A12G gave self-cleavage of 0.05
